- test_method_notes: S6 kinase pathway phospho-S6 level changes – cell-based, A549, cytoblot, luminescence, serum-stimulated, primary screen (AID 1158);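 further: serum-stimulated A549 lung adenocarcinoma cells; signal is phosphorylated S6 detected by cytoblot immunostaining with HRP secondary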
- run_parameters: 5 h, higher = more signal
quantity_measured: z-score
# respond with the number and nothing more

Recorded results for 3 molecules are shown here.
* C/C=C/[C@H](CCn1cc([C@H](O)c2ccccc2)nn1)[Si](C)(C)c1ccc(OC)cc1 | 0.293
* CN1C(=O)C2C=CC(C(O)c3ccc(Br)cc3)N(Nc3ccccc3)C2C1=O (stereo not drawn) | -0.595
* C=C(C(=O)CC[C@H](OC(=O)c1cccnc1)c1ccccc1OCCO)C(C)C | 0.142

input: z-score for "COCCOC(=O)N1C(=O)[C@@]2(c3cc(C#CCCO)ccc31)[C@H](c1ccc(O)cc1)N1[C@H](c3ccccc3)[C@H](c3ccccc3)OC(=O)[C@H]1[C@@H]2C(=O)N1CCCCCCC1" ?
output: -0.451

input: Try this molecule too: O=C1OCC=C[C@H]2OC34C=CCN(c5ccc(Cl)cc5)C(=O)[C@H]3N(CCCO)C(=O)[C@@H]4[C@@H]12 (stereo partly drawn)
output: 0.808

----------
Parameter: z-score. Scope: all listed entries.
- test_method_notes: viability profiling in RPMI8226 myeloma cells – cell-based, resazurin fluorescence, basal, 24 h, PK04 Diversity Set, profiling panel (AID 1180);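 further: RPMI8826 multiple myeloma cell line at 5000 cells per well; test concentration not given here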
- run_parameters: higher = more signal

* C=CCNC(=O)[C@H]1[C@@H]2C(=O)O[C@@H](c3ccccc3)[C@@H](c3ccccc3)N2[C@@H](c2ccc(OCCO)cc2)[C@]12C(=O)N(C(=O)OCCOC)c1ccc(C#CC3(O)CCCCCC3)cc12 | 0.393
* COC(=O)c1nc2oc1CC[C@@H](CO)NC(=O)N(C)Cc1cn(nn1)C[C@H](Cc1ccccc1)NC2=O | 0.407
* CCN(CC)c1ccc(N2CC=CC34O[C@@H]5C=CCOC(=O)[C@@H]5[C@H]3C(=O)N(CCCCCO)[C@@H]4C2=O)cc1 (some centres undefined) | 0.225

# context switch: different compound, same z-score
input: State the recorded z-score for this entry: "C=CC[C@@]1(C(N)=O)N=C(c2ccc(OCCCO)cc2)O[C@@H]1c1ccccc1N=[N+]=[N-]"
output: 0.502

----------
# z-score annotations
- test_method_notes: plasmodial surface anion channel blockers, osmotic lysis – cell-based, P. falciparum Indochina, OD700, 2 h, primary screen (AID 1155);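 further: lysis reports solute entry through the parasite surface anion channel PSAC; channel blockers reduce lysis of infected cells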
- run_parameters: P. falciparum Indochina infected erythrocytes, higher = more signal, called active from +8 up or from −8 down
Lab note: write the figure by itself, no unit.

* C=CCC(OC(C)=O)[C@@H]1[C@@H](N(Cc2cc3ccccc3o2)C(=O)c2ccc(C)cc2)c2cc(OCCCO)ccc2N1C(=O)c1ccc(-c2ccccc2)cc1 (some centres undefined) | 0.345
* C#C[C@H]1Oc2ccccc2S(=O)(=O)N2CCC[C@@H]12 | 0.276

input: Consider the compound shown here: "C=CCNC(=O)[C@H]1[C@@H]2C(=O)O[C@@H](c3ccccc3)[C@@H](c3ccccc3)N2[C@@H](c2ccc(O)cc2)[C@]12C(=O)Nc1ccc(C#Cc3ccc(OC)cc3)cc12" What is its recorded z-score?
output: 1.05

input: Continue with "COCCOC(=O)N1C(=O)[C@@]2(c3cc(C#CC4=CCCCC4)ccc31)[C@H](C(=O)N1CCN(c3ncccn3)CC1)[C@H]1C(=O)O[C@H](c3ccccc3)[C@H](c3ccccc3)N1[C@@H]2c1ccc(OCCO)cc1"
output: 1.85

input: Cool, now "CCCNC(=O)[C@@]1(C)c2ccccc2C(=O)N(C(C)C)[C@H]1c1ccc(CO)cc1"
output: -0.445

input: Next: "CC(C)C(=C=CC[C@H](O)c1ccccc1OCCO)CCO"
output: -0.0743

input: Another compound to look at: "CCCC[C@H]1OB(O)C[C@H]2C1=C(C)Cn1c(=O)n(-c3ccccc3)c(=O)n12"
output: 0.408

input: # repeat for "COc1ccc(C(=O)Nc2cccc(CN3C(=O)[C@@]4(O[C@@H](CC(=O)N5Cc6ccccc6C[C@H]5CO)[C@H]([Si](C)(C)c5ccc(OC)cc5)[C@H]4C)c4ccccc43)c2)cc1"
output: 1.49

input: // query: "CCCC[C@@H]1C[C@H]1[C@@H](NC(=O)c1ccccc1)c1ccc(-c2ccccc2)cc1"
output: 1.95

input: And for "C=C(C(=O)CC[C@H](OC(=O)c1cccnc1)c1ccccc1OCCO)C(C)C" ?
output: 0.943

input: Then "COCCOC(=O)N1C(=O)[C@@]2(c3cc(C#CC4=CCCCC4)ccc31)[C@H](c1ccc(OCCO)cc1)N1[C@H](c3ccccc3)[C@H](c3ccccc3)OC(=O)[C@H]1[C@@H]2C(=O)Nc1nc2ccccc2s1" ?
output: 0.922

input: Thanks! And "COC(=O)[C@@]1(Cc2ccc(OC)cc2)[C@H]2c3cc(C(=O)N4CCCC4)n(CCN4CCOCC4)c3C[C@H]2CN1C(=O)c1ccccc1" ?
output: -0.288

input: Thanks! And O=C(NCC(O)CO)[C@]1(CCS(=O)(=O)c2ccccc2)N=C(c2ccc(OCCCO)cc2)O[C@@H]1c1ccccc1 (some centres undefined) ?
output: 6.78

input: Next up: "COc1cc(CO)cc(I)c1O[C@H]1C=C(C(=O)NCCO)C[C@@H](N(CCc2cccc(F)c2)C(=O)CCC2CCCC2)[C@@H]1O"
output: 3.94

input: Next: "CO[C@H]1O[C@H](CO)[C@@H](OC(=O)Nc2cccc(F)c2)[C@H](OC(=O)Nc2ccccc2-c2ccccc2)[C@@H]1OC(=O)Nc1ccccc1-c1ccccc1"
output: 2.23

input: How about "C[N+](C)(C)CCCC[C@@H]1NC(=O)[C@@H]2C[C@H](C(=O)NCCCCCCNC(=O)CS)[C@H](c3cccc(OCCO)c3)N2C1=O" ?
output: 1.39

input: Record: "COC(=O)c1nc2oc1CC[C@@H](CO)NC(=O)N(C)Cc1cn(nn1)C[C@H](Cc1ccccc1)NC2=O"
output: 0.394

input: Proceed to "C=C(/C(=C/C[C@@H](OC(C)=O)c1ccc(CO)o1)c1cnc2ccccc2c1)C(C)C"
output: 1.28

input: Please give the result for "C=C(COC)/C(=C/C[C@H](OC(C)=O)c1ccccc1OCCO)c1cnc2ccccc2c1" too.
output: 2.74
